Items are presented alongside their recorded Fluorescence intensity, fluorescence competitive binding assay, OBP11.
- Target Desc: SfurOBP11 (Sogatella furcifera)
- Assay Comment: biochemical
- Type: binding
- Condition Summary: ligand concentration 10, replicate 2
No unit in the answer, please; the number alone is enough.

1. C=C(C)C1CC=C(C)CC1 (single isomer, unassigned; (+)) [(+)-limonene]
19568
2. CCCCCCCCCCCCCC
28751
3. c1ccc2ccccc2c1
29352
4. CCCCCCCCCCOCCCCCCCCCC
50348

Q: Please give the documented Fluorescence intensity, fluorescence competitive binding assay, OBP11 of CC1=CC[C@@H](C(C)(C)O)CC1
A: 24221

====

Items are presented alongside their recorded Fluorescence competitive binding assay, OBP2 (raw fluorescence reading).
- Target Desc: SfurOBP2 (Sogatella furcifera, UniProt V5T759)
- Sequence (V5T759 entry or part of it): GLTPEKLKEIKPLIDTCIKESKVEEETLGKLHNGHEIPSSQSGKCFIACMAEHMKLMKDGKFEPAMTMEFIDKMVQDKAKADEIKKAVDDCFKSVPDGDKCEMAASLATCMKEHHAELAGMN
- Assay Comment: biochemical
- Assay type: binding
- Condition Summary: ligand concentration 18 (unit not given), replicate column 3 of 3
- Protocol: Thirty-six rice odorants ([He et al., 2014]; [Wang et al., 2017]) and 1-N-phenyl-naphthylamine (1-NPN) were purchased from Sigma-Aldrich (St Louis, MO, USA). […] Fluorescence competitive binding assays were performed on Tecan Spark 10M (Tecan Group Ltd., Männedorf, Switzerland) with the F96 Black ELIAS Plate (Sangon) ([Khuhro et al., 2017]; [Liu et al., 2017]). The solutions were excited at 337 nm and emission spectra were recorded between 390 and 490 nm. […]
No unit in the answer, please; the number alone is enough.

1) O=C(c1ccccc1)c1ccccc1
11969
2) C=C/C(C)=C/C/C=C(\C)CCC=C(C)C
20804
3) CCCCCCCCCCOCCCCCCCCCC
54896
4) CCCCCCCCCCC
14178
5) CC(=O)/C=C/C1=C(C)CCCC1(C)C
11737

Q: Please give the documented Fluorescence competitive binding assay, OBP2 (raw fluorescence reading) of C=CC(C)(O)CCC=C(C)C (centres unmarked)
A: 13833

Q: Please give the documented Fluorescence competitive binding assay, OBP2 (raw fluorescence reading) of CCCCCC(C)=O
A: 21813

====

- Target Desc: SfurOBP11 (Sogatella furcifera, UniProt V5T6E3)
- Sequence (V5T6E3 entry or part of it): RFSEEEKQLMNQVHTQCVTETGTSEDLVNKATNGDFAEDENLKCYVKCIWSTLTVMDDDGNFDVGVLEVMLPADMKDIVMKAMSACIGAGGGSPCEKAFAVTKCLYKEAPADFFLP
- Assay Comment: biochemical
- Assay type: binding
- Condition Summary: ligand concentration 4, replicate 1
Property Label: Fluorescence intensity, fluorescence competitive binding assay, OBP11
No unit in the answer, please; the number alone is enough.

Q: Lab note: record Fluorescence intensity, fluorescence competitive binding assay, OBP11 of CCCCCCCCCCCCCC tested on SfurOBP11 (Sogatella furcifera, UniProt V5T6E3).
A: 30256

Q: Lab note: record Fluorescence intensity, fluorescence competitive binding assay, OBP11 of Cc1ccc(C(C)C)cc1 tested on SfurOBP11 (Sogatella furcifera, UniProt V5T6E3).
A: 30015

Q: Lab note: record Fluorescence intensity, fluorescence competitive binding assay, OBP11 of CCCCCCCCCCCCO tested on SfurOBP11 (Sogatella furcifera, UniProt V5T6E3).
A: 24290

Q: Lab note: record Fluorescence intensity, fluorescence competitive binding assay, OBP11 of CCCCCCCCCCCCC=O tested on SfurOBP11 (Sogatella furcifera, UniProt V5T6E3).
A: 25125

Q: Lab note: record Fluorescence intensity, fluorescence competitive binding assay, OBP11 of OC1CCCCC1 tested on SfurOBP11 (Sogatella furcifera, UniProt V5T6E3).
A: 24494

Q: Lab note: record Fluorescence intensity, fluorescence competitive binding assay, OBP11 of CCCCCCCC tested on SfurOBP11 (Sogatella furcifera, UniProt V5T6E3).
A: 28278

Q: Lab note: record Fluorescence intensity, fluorescence competitive binding assay, OBP11 of c1ccc2ccccc2c1 tested on SfurOBP11 (Sogatella furcifera, UniProt V5T6E3).
A: 34130

Q: Lab note: record Fluorescence intensity, fluorescence competitive binding assay, OBP11 of O=C(c1ccccc1)c1ccccc1 tested on SfurOBP11 (Sogatella furcifera, UniProt V5T6E3).
A: 20588

Q: Lab note: record Fluorescence intensity, fluorescence competitive binding assay, OBP11 of CCCCCCCCCCCCCCCC(=O)OC [MH(methyl hexadecanoate)] tested on SfurOBP11 (Sogatella furcifera, UniProt V5T6E3).
A: 30123

Q: Lab note: record Fluorescence intensity, fluorescence competitive binding assay, OBP11 of CCCCCCCCC=O tested on SfurOBP11 (Sogatella furcifera, UniProt V5T6E3).
A: 33062
